- procedureDetails: recombinant barcode read abundance after kanamycin selection (control-corrected) (log10(CPM+1)); higher = more efficient recombination; sequences stand for … in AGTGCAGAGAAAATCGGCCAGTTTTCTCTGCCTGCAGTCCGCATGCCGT…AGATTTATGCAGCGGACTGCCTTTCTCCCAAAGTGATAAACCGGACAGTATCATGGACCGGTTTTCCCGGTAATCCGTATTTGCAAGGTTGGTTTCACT; site = the 11-nt target
readoutName: recombinant barcode read abundance (log10)
Note: the reply should be a number with no unit written.

[
  {
    "seqString": "ACGTCACCTTGGGTTCTAACCTGTTGCCT (site GCGTCACCTAG)",
    "reported": 0.221
  }
]

Enquiry: Entry TGCGGAGCTTGGGTTCTAACCTGTTGCCG (site GATTATACTAA) has what recombinant barcode read abundance (log10)?
Return: 0.0782

====

- procedureDetails: recombinant UMI read abundance after kanamycin selection (control-corrected) (log10(CPM+1)); higher = more efficient recombination; extreme values may be limits of the assay; sequences stand for … in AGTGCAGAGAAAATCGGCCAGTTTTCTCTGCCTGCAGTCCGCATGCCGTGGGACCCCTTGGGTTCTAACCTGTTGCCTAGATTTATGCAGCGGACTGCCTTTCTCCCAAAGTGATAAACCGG…AGGTTGGTTTCACT; site = the 11-nt donor
recombinant UMI read abundance (log10) of 0.02 or higher: y. Under 0.02: n.

Enquiry: Is recombinant UMI read abundance (log10) at least 0.02? Consider CCCCACACATGGACCGGTTTTCCCGGTAATCCGTATTTGTT (site CCCCACACTCA)
Return: y

Enquiry: Is recombinant UMI read abundance (log10) at least 0.02? Consider AGCCTTCCATGGACCGGTTTTCCCGGTAATCCGTATTTGAC (site AGCCTTCCTGT)
Return: n

Enquiry: Is recombinant UMI read abundance (log10) at least 0.02? Consider TTGACCCCATGGACCGGTTTTCCCGGTAATCCGTATTTGAT (site TTGACCCCTAT)
Return: y

Enquiry: Is recombinant UMI read abundance (log10) at least 0.02? Consider CAAGTATCATGGACCGGTTTTCCCGGTAATCCGTATTTGAC (site CGAGTATCTGT)
Return: y

Enquiry: Is recombinant UMI read abundance (log10) at least 0.02? Consider AATGTTACATGGACCGGTTTTCCCGGTAATCCGTATTTGCT (site AATGTTACTAG)
Return: y

====

- procedureDetails: recombinant UMI read abundance after kanamycin selection (control-corrected) (log10(CPM+1)); higher = more efficient recombination; extreme values may be limits of the assay; sequences stand for … in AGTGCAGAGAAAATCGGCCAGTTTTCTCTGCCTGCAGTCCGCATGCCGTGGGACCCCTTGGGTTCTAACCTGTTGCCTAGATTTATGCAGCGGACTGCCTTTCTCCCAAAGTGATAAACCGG…AGGTTGGTTTCACT; site = the 11-nt donor
recombinant UMI read abundance (log10) of 0.007 or higher: yes. Under 0.007: no.

For orientation, consider the following solved cases.
[
  {
    "seqString": "GGAGTCGCATGGACCGGTTTTCCCGGTAATCCGTATTTGGT (site GGAGTGGCTAC)",
    "assignedLabel": "yes"
  },
  {
    "seqString": "TGGCGGGCATGGACCGGTTTTCCCGGTAATCCGTATTTGGC (site TGGCAGGCTGC)",
    "assignedLabel": "yes"
  },
  {
    "seqString": "TCATGAGCATGGACCGGTTTTCCCGGTAATCCGTATTTGGG (site TAATGAGCTCC)",
    "assignedLabel": "yes"
  }
]

Enquiry: Is recombinant UMI read abundance (log10) at least 0.007? Consider GAGCACGCATGGACCGGTTTTCCCGGTAATCCGTATTTGGG (site TAGCACGCTCC)
Return: yes

Enquiry: Is recombinant UMI read abundance (log10) at least 0.007? Consider GCGCTAGCATGGACCGGTTTTCCCGGTAATCCGTATTTGCA (site GCGCTAGCTTG)
Return: yes

Enquiry: Is recombinant UMI read abundance (log10) at least 0.007? Consider CTACTAACATGGACCGGTTTTCCCGGTAATCCGTATTTGGG (site CTACTAACTGC)
Return: yes

Enquiry: Is recombinant UMI read abundance (log10) at least 0.007? Consider CCAAGGGCATGGACCGGTTTTCCCGGTAATCCGTATTTGCT (site CCAAGGGCTAG)
Return: no

Enquiry: Is recombinant UMI read abundance (log10) at least 0.007? Consider AGCCCTTCATGGACCGGTTTTCCCGGTAATCCGTATTTGAC (site AGCCTTTCTGT)
Return: yes
